Data origin: patent US20080161289A1

- experimental_target: histamine H3 receptors (Homo sapiens, UniProt Q9Y5N1)
- Construct: expressed in transfected cells; host or cells: CHO K1 cells carrying pSwitch, transfected with pGeneH3, induced with mifepristone; clone 3H3; membrane preparation
- Sequence (Q9Y5N1 whole entry): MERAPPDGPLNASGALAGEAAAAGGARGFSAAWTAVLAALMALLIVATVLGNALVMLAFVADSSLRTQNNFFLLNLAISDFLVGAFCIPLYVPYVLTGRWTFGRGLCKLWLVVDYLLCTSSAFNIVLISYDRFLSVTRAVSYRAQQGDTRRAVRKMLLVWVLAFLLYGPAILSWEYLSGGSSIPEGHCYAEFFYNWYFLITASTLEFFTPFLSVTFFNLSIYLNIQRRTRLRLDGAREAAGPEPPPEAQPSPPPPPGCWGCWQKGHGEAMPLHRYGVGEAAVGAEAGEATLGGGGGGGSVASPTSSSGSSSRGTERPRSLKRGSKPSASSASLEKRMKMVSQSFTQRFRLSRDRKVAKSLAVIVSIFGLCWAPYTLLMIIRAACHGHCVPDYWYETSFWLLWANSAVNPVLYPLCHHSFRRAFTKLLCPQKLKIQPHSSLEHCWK
- procedure_details: Histamine H3 functional antagonist assay ([35S]-GTPγS SPA on membranes from H3 cells)
- Type: biochemical
- settings: hydrochloride salts tested; H3 functional antagonist assay using membrane prepared from cultured H3 cells; averages of a number of experiments; read-out: functional pKi (fpKi) (converted)
readout_name: Ki

For orientation, consider the following solved cases.
                                   molecule  readout_name       value
0  CNC(=O)c1ccc(N2CCC(c3nc4c(s3)CCN(C3CCC3)CC4)CC2)cn1 [Example E77]            Ki   < 1.26 nM
1  Cc1cc(C(=O)N2CCC(c3nc4c(s3)CCN(C3CCC3)CC4)CC2)on1 [Example E18]            Ki   < 1.26 nM
2  Cc1cn(C)nc1C(=O)N1CCC(c2nc3c(s2)CCN(C2CCC2)CC3)CC1 [Example E85]            Ki   < 1.26 nM
3  CN1CCN(c2ccc(-c3nc4c(s3)CCN(C3CCC3)CC4)cc2)C1=O [Example E26]            Ki  < 0.316 nM

[ask] State, in one line, measured Ki of CC(C)N1CCc2nc(-c3ccc(N4CCN(C)C4=O)cc3)sc2CC1 [Example E29]
[reply] < 1.26 nM

[ask] Supply reported Ki belonging to this molecule: N#Cc1cccc(-c2nc3c(s2)CCN(C2CCC2)CC3)c1 [Example E112]
[reply] < 31.6 nM

[ask] Recall and state the measured Ki for Cc1ncccc1C(=O)N1CCC(c2nc3c(s2)CCN(C2CCC2)CC3)CC1 [Example E25] .
[reply] < 1.26 nM

[ask] Please give the documented Ki of Cc1cccnc1C(=O)N1CCC(c2nc3c(s2)CCN(C2CCC2)CC3)CC1 [Example E83]
[reply] < 1.26 nM

[ask] Entry O=C(c1ccc(Cl)cc1)N1CCC(c2nc3c(s2)CCN(C2CCC2)CC3)CC1 [Example E80] needs its Ki filled in; supply it.
[reply] < 1.26 nM
